# TESTED TARGET: protein kinase C (mixed isozymes)
# EXPERIMENTAL PROTOCOL: Protein kinase C TCA precipitation assay
# TEST CONTEXT: Table 3; read-out: PKC IC50
# Procedure: Enzymes: Cdc2/cyclin B was obtained from commercial sources. Cdk2/his-cyclin Eshort was expressed in Sf9 cells. Cdk2/cyclin A, cdk4/cyclin D1, and cdk6/cyclin D2 were expressed in Sf9 cells. […] Protein kinase C and protein kinase A were assayed using a TCA precipitation assay with Histone H1 as a substrate. […] The filters were washed ten times with 25% (w/v) trichloroacetic acid, and the amount of incorporated [^32P]phosphate was determined by adding 100 μl Microscint and scintillation counting.
REPORTED METRIC: IC50

Retrieve IC50 measured for CC(C)N1CCN(CCOc2ccc(-c3[nH]nc4c3C(=O)c3c(NC(=O)NN5CCOCC5)cccc3-4)cc2)CC1 and print it.
< 10 µM
